Entries and their measured TL1A Binding Level (Early) follow.
- measured-target: T1, human TL1A extracellular domain with N-terminal HIS and FLAG tag (human, UniProt O95150 72-251)
- T1 construct: the whole entry is named
- T1 sequence: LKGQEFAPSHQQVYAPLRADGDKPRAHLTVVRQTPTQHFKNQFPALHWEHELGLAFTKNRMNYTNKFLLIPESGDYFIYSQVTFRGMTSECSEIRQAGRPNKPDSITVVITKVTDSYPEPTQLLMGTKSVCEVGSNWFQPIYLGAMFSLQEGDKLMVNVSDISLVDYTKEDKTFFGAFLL
- test-summary: SPR Run 6, purified Ab captured on Protein A, TL1A 5 ug/mL, timepoint 44
Give just the number in RU; leave the unit off.

- binder: "320-458 (antibody, human IgG1, name in Kabat numbering, V domains shown, human IgG1, lambda) VH: QVQLVQSGAEVKKPGASVKVSCKASGYTFTSYDHNWVRQAPGQGLEWMGWLNPNSGNTGYAQKFQGRVTMTADRSTSTAYMELSSLRSEDTAVYYCAREVPETAAFEYWGQGTLVTVSS VL: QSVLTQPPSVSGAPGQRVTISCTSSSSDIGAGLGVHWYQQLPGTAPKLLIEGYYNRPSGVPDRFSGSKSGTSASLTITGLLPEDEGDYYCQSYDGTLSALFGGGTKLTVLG"
  endpoint-unit: "RU"
  numeric-value: 59
- binder: "320-456 (antibody, human IgG1, name in Kabat numbering, V domains shown, human IgG1, lambda) VH: QVQLVQSGAEVKKPGASVKVSCKASGYTFTSYDQNWVRQAPGQGLEWMGWLNPNSGNTGYAQKFQGRVTMTADRSTSTAYMELSSLRSEDTAVYYCAREVPETAAFEYWGQGTLVTVSS VL: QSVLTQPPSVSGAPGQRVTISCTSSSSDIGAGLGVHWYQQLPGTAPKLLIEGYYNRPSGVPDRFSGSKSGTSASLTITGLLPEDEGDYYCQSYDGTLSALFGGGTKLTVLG"
  endpoint-unit: "RU"
  numeric-value: 52
- binder: "320-469 (antibody, human IgG1, name in Kabat numbering, V domains shown, human IgG1, lambda) VH: QVQLVQSGAEVKKPGASVKVSCKASGYTFTSYDILWVRQAPGQGLEWMGWLNPNSGNTGYAQKFQGRVTMTADRSTSTAYMELSSLRSEDTAVYYCAREVPETAAFEYWGQGTLVTVSS VL: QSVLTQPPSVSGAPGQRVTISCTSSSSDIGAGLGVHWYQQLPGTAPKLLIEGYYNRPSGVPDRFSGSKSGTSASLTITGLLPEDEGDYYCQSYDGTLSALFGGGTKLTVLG"
  endpoint-unit: "RU"
  numeric-value: 69
- binder: "320-435 (antibody, human IgG1, name in Kabat numbering, V domains shown, human IgG1, lambda) VH: QVQLVQSGAEVKKPGASVKVSCKASGYTFTLYDINWVRQAPGQGLEWMGWLNPNSGNTGYAQKFQGRVTMTADRSTSTAYMELSSLRSEDTAVYYCAREVPETAAFEYWGQGTLVTVSS VL: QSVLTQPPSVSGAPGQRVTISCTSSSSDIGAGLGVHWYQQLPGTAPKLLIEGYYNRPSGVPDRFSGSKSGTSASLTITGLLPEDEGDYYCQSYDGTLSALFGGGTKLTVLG"
  endpoint-unit: "RU"
  numeric-value: 92
- binder: "320-436 (antibody, human IgG1, name in Kabat numbering, V domains shown, human IgG1, lambda) VH: QVQLVQSGAEVKKPGASVKVSCKASGYTFTWYDINWVRQAPGQGLEWMGWLNPNSGNTGYAQKFQGRVTMTADRSTSTAYMELSSLRSEDTAVYYCAREVPETAAFEYWGQGTLVTVSS VL: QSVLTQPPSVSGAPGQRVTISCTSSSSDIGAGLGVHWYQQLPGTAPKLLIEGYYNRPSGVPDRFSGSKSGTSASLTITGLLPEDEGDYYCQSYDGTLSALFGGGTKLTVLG"
  endpoint-unit: "RU"
  numeric-value: 129

[in] # input binder: 320-464 (antibody, human IgG1, name in Kabat numbering, V domains shown, human IgG1, lambda) VH: QVQLVQSGAEVKKPGASVKVSCKASGYTFTSYDISWVRQAPGQGLEWMGWLNPNSGNTGYAQKFQGRVTMTADRSTSTAYMELSSLRSEDTAVYYCAREVPETAAFEYWGQGTLVTVSS VL: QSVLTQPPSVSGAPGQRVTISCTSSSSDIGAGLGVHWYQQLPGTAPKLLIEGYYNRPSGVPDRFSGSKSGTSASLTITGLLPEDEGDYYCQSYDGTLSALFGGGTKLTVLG ; wanted: its TL1A Binding Level (Early)
[out] 130

[in] # input binder: 320-479 (antibody, human IgG1, name in Kabat numbering, V domains shown, human IgG1, lambda) VH: QVQLVQSGAEVKKPGASVKVSCKASGYTFTSYDINWVRQAPGQGLEWMGWLNPNSGNTGYWQKFQGRVTMTADRSTSTAYMELSSLRSEDTAVYYCAREVPETAAFEYWGQGTLVTVSS VL: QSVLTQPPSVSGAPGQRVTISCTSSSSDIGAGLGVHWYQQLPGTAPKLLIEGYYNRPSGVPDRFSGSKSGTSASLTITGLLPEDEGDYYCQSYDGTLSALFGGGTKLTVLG ; wanted: its TL1A Binding Level (Early)
[out] 61

[in] # input binder: 320-440 (antibody, human IgG1, name in Kabat numbering, V domains shown, human IgG1, lambda) VH: QVQLVQSGAEVKKPGASVKVSCKASGYTFTSQDINWVRQAPGQGLEWMGWLNPNSGNTGYAQKFQGRVTMTADRSTSTAYMELSSLRSEDTAVYYCAREVPETAAFEYWGQGTLVTVSS VL: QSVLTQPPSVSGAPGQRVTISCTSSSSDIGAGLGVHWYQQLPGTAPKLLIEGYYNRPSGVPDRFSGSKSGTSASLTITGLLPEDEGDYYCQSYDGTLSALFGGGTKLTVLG ; wanted: its TL1A Binding Level (Early)
[out] 108

[in] # input binder: 320-446 (antibody, human IgG1, name in Kabat numbering, V domains shown, human IgG1, lambda) VH: QVQLVQSGAEVKKPGASVKVSCKASGYTFTSYAINWVRQAPGQGLEWMGWLNPNSGNTGYAQKFQGRVTMTADRSTSTAYMELSSLRSEDTAVYYCAREVPETAAFEYWGQGTLVTVSS VL: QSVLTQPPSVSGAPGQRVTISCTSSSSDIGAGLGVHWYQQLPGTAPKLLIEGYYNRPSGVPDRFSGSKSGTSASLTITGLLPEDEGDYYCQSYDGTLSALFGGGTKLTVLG ; wanted: its TL1A Binding Level (Early)
[out] 18

[in] # input binder: 320-445 (antibody, human IgG1, name in Kabat numbering, V domains shown, human IgG1, lambda) VH: QVQLVQSGAEVKKPGASVKVSCKASGYTFTSWDINWVRQAPGQGLEWMGWLNPNSGNTGYAQKFQGRVTMTADRSTSTAYMELSSLRSEDTAVYYCAREVPETAAFEYWGQGTLVTVSS VL: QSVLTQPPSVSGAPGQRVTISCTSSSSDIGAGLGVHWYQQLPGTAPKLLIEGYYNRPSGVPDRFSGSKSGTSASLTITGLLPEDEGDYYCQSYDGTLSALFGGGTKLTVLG ; wanted: its TL1A Binding Level (Early)
[out] 116
